# assayedSystem: Orexin/Hypocretin receptor type 1 (Homo sapiens, UniProt O43613)
# Sequence (O43613 whole entry): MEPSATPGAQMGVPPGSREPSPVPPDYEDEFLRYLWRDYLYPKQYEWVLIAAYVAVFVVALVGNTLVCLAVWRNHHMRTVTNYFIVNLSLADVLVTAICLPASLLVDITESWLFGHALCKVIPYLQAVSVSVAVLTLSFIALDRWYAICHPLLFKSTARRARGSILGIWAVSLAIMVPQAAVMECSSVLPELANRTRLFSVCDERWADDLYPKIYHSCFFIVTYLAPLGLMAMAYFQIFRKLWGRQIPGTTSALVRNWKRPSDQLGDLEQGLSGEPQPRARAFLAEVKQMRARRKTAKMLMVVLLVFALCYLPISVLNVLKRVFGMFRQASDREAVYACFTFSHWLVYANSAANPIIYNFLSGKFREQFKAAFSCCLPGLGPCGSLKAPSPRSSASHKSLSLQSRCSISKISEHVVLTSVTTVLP
# assayMethodText: Agonist activity at human OX1 receptor overexpressed in CHO-RD-HGA16 cells assessed as calcium mobilization after 15 mins by fluorescence assay
# Format: functional, cell-based
Where a SMILES comes first, the peptide text is derived from it.
resultType: pEC50
Lab note: report pEC50 as minus log10 of the concentration in molar units, number only.

compound	assayedSystem	pEC50
CC[C@H](C)[C@H](NC(=O)CNC(=O)[C@H](C)NC(=O)[C@H](C)NC(=O)[C@H](Cc1cnc[nH]1)NC(=O)[C@H](CC(N)=O)NC(=O)CNC(=O)[C@H](C)NC(=O)CNC(=O)[C@@H](Cc1cnc[nH]1)NC(=O)[C@H](CC(C)C)NC(=O)[C@H](CC(C)C)NC(=O)[C@H](CCC(=O)O)NC(=O)[C@@H](N)Cc1ccc(O)cc1)C(=O)N[C@@H](CC(C)C)C(=O)N[C@H](C(=O)N[C@@H](CC(C)C)C(N)=O)[C@@H](C)O	Orexin/Hypocretin receptor type 1 (Homo sapiens, UniProt O43613)	5.81
CC[C@H](C)[C@H](NC(=O)CNC(=O)[C@H](C)NC(=O)[C@H](C)NC(=O)[C@H](Cc1cnc[nH]1)NC(=O)[C@H](CC(N)=O)NC(=O)CNC(=O)[C@H](C)NC(=O)CNC(=O)[C@H](Cc1cnc[nH]1)NC(=O)[C@H](CC(C)C)NC(=O)[C@H](CC(C)C)NC(=O)[C@H](CCC(=O)O)NC(=O)[C@@H](N)Cc1ccc(O)cc1)C(=O)N[C@@H](CC(C)C)C(=O)N[C@H](C(=O)N[C@@H](CC(C)C)C(N)=O)[C@@H](C)O	Orexin/Hypocretin receptor type 1 (Homo sapiens, UniProt O43613)	8.08
CC[C@H](C)[C@H](NC(=O)CNC(=O)[C@H](C)NC(=O)[C@H](C)NC(=O)[C@H](Cc1cnc[nH]1)NC(=O)[C@H](C)NC(=O)CNC(=O)[C@H](C)NC(=O)CNC(=O)[C@H](Cc1cnc[nH]1)NC(=O)[C@H](CC(C)C)NC(=O)[C@H](CC(C)C)NC(=O)[C@H](CCC(=O)O)NC(=O)[C@@H](N)Cc1ccc(O)cc1)C(=O)N[C@@H](CC(C)C)C(=O)N[C@H](C(=O)N[C@@H](CC(C)C)C(N)=O)[C@@H](C)O (H-YELLHGAGAHAAGILTL-NH2)	Orexin/Hypocretin receptor type 1 (Homo sapiens, UniProt O43613)	5.51

Now for the compound whose pEC50 we want.
In one line, give reported pEC50 of the entry CC[C@H](C)[C@H](NC(=O)CNC(=O)[C@H](C)NC(=O)[C@H](C)NC(=O)[C@H](Cc1cnc[nH]1)NC(=O)[C@H](CC(N)=O)NC(=O)CNC(=O)[C@H](C)NC(=O)CNC(=O)[C@H](Cc1cnc[nH]1)NC(=O)[C@@H]1CCCN1C(=O)[C@H](CC(C)C)NC(=O)[C@H](CCC(=O)O)NC(=O)[C@@H](N)Cc1ccc(O)cc1)C(=O)N[C@@H](CC(C)C)C(=O)N[C@H](C(=O)N[C@@H](CC(C)C)C(N)=O)[C@@H](C)O (H-YELPHGAGNHAAGILTL-NH2) .
5.95

----------
// reported Ratio EC50 per item
# Species: Homo sapiens
# assayMethodText: Selectivity ratio of EC50 for human OX2 receptor to EC50 for human OX1 receptor
Where a SMILES comes first, the peptide text is derived from it.
Give a plain numeric answer without units written out.

molecule	resultType	reportedResult
CC[C@H](C)[C@H](NC(=O)CNC(=O)[C@H](C)NC(=O)[C@H](C)NC(=O)[C@H](Cc1cnc[nH]1)NC(=O)[C@H](C)NC(=O)CNC(=O)[C@H](C)NC(=O)CNC(=O)[C@H](Cc1cnc[nH]1)NC(=O)[C@H](CC(C)C)NC(=O)[C@H](CC(C)C)NC(=O)[C@H](CCC(=O)O)NC(=O)[C@@H](N)Cc1ccc(O)cc1)C(=O)N[C@@H](CC(C)C)C(=O)N[C@H](C(=O)N[C@@H](CC(C)C)C(N)=O)[C@@H](C)O (H-YELLHGAGAHAAGILTL-NH2)	Ratio EC50	0.8
CC[C@H](C)[C@H](NC(=O)CNC(=O)[C@H](C)NC(=O)[C@H](C)NC(=O)[C@H](Cc1cnc[nH]1)NC(=O)[C@H](CC(N)=O)NC(=O)CNC(=O)[C@@H](C)NC(=O)CNC(=O)[C@H](Cc1cnc[nH]1)NC(=O)[C@H](CC(C)C)NC(=O)[C@H](CC(C)C)NC(=O)[C@H](CCC(=O)O)NC(=O)[C@@H](N)Cc1ccc(O)cc1)C(=O)N[C@@H](CC(C)C)C(=O)N[C@H](C(=O)N[C@@H](CC(C)C)C(N)=O)[C@@H](C)O	Ratio EC50	0.6
CC[C@H](C)[C@H](NC(=O)CNC(=O)[C@H](C)NC(=O)[C@H](C)NC(=O)[C@@H](Cc1cnc[nH]1)NC(=O)[C@H](CC(N)=O)NC(=O)CNC(=O)[C@H](C)NC(=O)CNC(=O)[C@H](Cc1cnc[nH]1)NC(=O)[C@H](CC(C)C)NC(=O)[C@H](CC(C)C)NC(=O)[C@H](CCC(=O)O)NC(=O)[C@@H](N)Cc1ccc(O)cc1)C(=O)N[C@@H](CC(C)C)C(=O)N[C@H](C(=O)N[C@@H](CC(C)C)C(N)=O)[C@@H](C)O	Ratio EC50	0.3
CC[C@H](C)[C@H](NC(=O)CNC(=O)[C@H](C)NC(=O)[C@H](C)NC(=O)[C@H](Cc1cnc[nH]1)NC(=O)[C@H](CC(N)=O)NC(=O)CNC(=O)[C@H](C)NC(=O)CNC(=O)[C@@H](Cc1cnc[nH]1)NC(=O)[C@H](CC(C)C)NC(=O)[C@H](CC(C)C)NC(=O)[C@H](CCC(=O)O)NC(=O)[C@@H](N)Cc1ccc(O)cc1)C(=O)N[C@@H](CC(C)C)C(=O)N[C@H](C(=O)N[C@@H](CC(C)C)C(N)=O)[C@@H](C)O	Ratio EC50	0.4

Here's the next entry for you.
Given the molecule CC[C@H](C)[C@H](NC(=O)CNC(=O)[C@H](C)NC(=O)[C@H](C)NC(=O)[C@H](Cc1cnc[nH]1)NC(=O)[C@H](CC(N)=O)NC(=O)CNC(=O)[C@H](C)NC(=O)[C@H](C)NC(=O)[C@H](Cc1cnc[nH]1)NC(=O)[C@H](CC(C)C)NC(=O)[C@H](CC(C)C)NC(=O)[C@H](CCC(=O)O)NC(=O)[C@@H](N)Cc1ccc(O)cc1)C(=O)N[C@@H](CC(C)C)C(=O)N[C@H](C(=O)N[C@@H](CC(C)C)C(N)=O)[C@@H](C)O (H-YELLHAAGNHAAGILTL-NH2) , write its reported Ratio EC50.
3.4
